# assay.system: nuclear BRD4-NUT foci in HCC2494 NUT midline carcinoma cells (Homo sapiens, UniProt O60885)
# assay.notes: cell-based
pIC50: −log10 of the molar value.
Lab note: anything with pIC50 at or over 7 counts as met; the rest go in not met.

Please review the entries below; each comes with its answer.
# molecule, label
data = [
    ("Cc1noc(C)c1-c1nc2c(n1C(C)C)C(c1ccc(Cl)cc1)N(c1cc(C)c(=O)n(C)c1)C2=O (stereo not shown) [Example 27]", "not met"),
    ("Cc1cc(N2C(=O)c3c(nc(C)n3C3CC3)C2c2ccc(Cl)cc2)cn2c(C)nnc12 (stereo not shown) [Example 115]", "met"),
    ("COc1ncc(-c2nc3c(n2C)C(c2ccc(Cl)cc2)N(c2cc(OC)c4nnc(C)n4c2)C3=O)c(OC)n1 (stereo not shown) [Example 54]", "not met"),
    ("COc1ncc(-c2nc3c([nH]2)C(c2ccc(Cl)cc2)N(c2cc(OC)c4nnc(C)n4c2)C3=O)c(OC)n1 (stereo not shown) [Example 127]", "not met"),
    ("COc1ccc(-c2nc3c(n2C)C(c2ccc(Cl)cc2)N(c2cc(C)c4nnc(C)n4c2)C3=O)cn1 (stereo not shown) [Example 16]", "not met"),
]

Consider now this further molecule.
Reported pIC50 reaches at least 7 for CCn1c(-c2ccc(OC)nc2)nc2c1C(=O)N(c1cc(C)c(=O)n(C)c1)[C@@H]2c1ccc(Cl)cc1 [Example 39] ?
met

---

# assay.system: BRD2 (His-Brd2(60-472)) (Homo sapiens (Human), UniProt P25440)
# Sequence (P25440 60-472): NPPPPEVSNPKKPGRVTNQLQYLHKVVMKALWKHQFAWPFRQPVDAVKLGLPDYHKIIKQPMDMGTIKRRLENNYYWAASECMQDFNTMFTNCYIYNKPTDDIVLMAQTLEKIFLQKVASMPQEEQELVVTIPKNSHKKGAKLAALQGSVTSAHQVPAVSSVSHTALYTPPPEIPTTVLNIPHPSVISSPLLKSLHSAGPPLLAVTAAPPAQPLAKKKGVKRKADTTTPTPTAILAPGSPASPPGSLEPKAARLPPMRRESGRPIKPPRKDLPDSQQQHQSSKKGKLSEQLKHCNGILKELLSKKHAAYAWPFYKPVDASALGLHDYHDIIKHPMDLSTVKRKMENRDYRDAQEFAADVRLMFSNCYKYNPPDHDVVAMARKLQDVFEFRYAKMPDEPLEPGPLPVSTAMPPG
# assay.notes: TR-FRET in-vitro binding assay for BRD2
# settings: single determination or n ≧ 2 independent determinations, read-out: Biochemical IC50 BRD2
endpoint.name: IC50 (nM)
All answers are understood in nM, so give the number only.

Supply reported IC50 belonging to this compound: CCCn1c(-c2cncc(C#N)c2)nc2c1C(=O)N(c1cc(C)c(=O)n(C)c1)C2c1ccc(Cl)cc1 (stereo not drawn)
274

Supply reported IC50 belonging to this compound: Cc1cc(N2C(=O)c3nc(C4CC4)n(C(C)C)c3C2c2ccc(Cl)cc2)cn2c(C)nnc12 (racemic)
41

Supply reported IC50 belonging to this compound: COc1ncc(-c2nc3c(n2C(C)C)[C@@H](c2ccc(Cl)cc2)N(c2cc(C)c4nnc(C(F)F)n4c2)C3=O)c(OC)n1
16

Supply reported IC50 belonging to this compound: COc1ncccc1-c1nc2c(n1C(C)C)C(c1ccc(Cl)cc1)N(c1cc(C)c3nnc(CF)n3c1)C2=O (stereo not drawn)
35

Supply reported IC50 belonging to this compound: COc1cc(N2C(=O)c3nc(C4CC4)n(C)c3C2c2ccc(Cl)cc2)cn2c(C)nnc12 (stereo not drawn)
290

Supply reported IC50 belonging to this compound: Cc1cc(N2C(=O)c3nc(C4=CCOCC4)[nH]c3C2c2ccc(Cl)cc2)cn(C)c1=O (stereo not drawn)
80

Supply reported IC50 belonging to this compound: Cc1cc(N2C(=O)c3nc(-c4ccc[nH]4)n(C(C)C)c3C2c2ccc(Cl)cc2)cn(C)c1=O (stereo not drawn)
92

Supply reported IC50 belonging to this compound: COc1ncccc1-c1nc2c(n1C(C)C)[C@@H](c1ccc(Cl)cc1)N(c1cc(C)c3nnn(C)c3n1)C2=O
16

Supply reported IC50 belonging to this compound: Cc1cc(N2C(=O)c3nc(C)n(C(C)C)c3[C@H]2c2ccc(Cl)cc2)cc2c1nnn2C
38

Supply reported IC50 belonging to this compound: Cc1nc2c([nH]1)C(c1ccc(Cl)cc1)N(c1cc(C)c3nnc(C(F)F)n3c1)C2=O (stereo not drawn)
86

Supply reported IC50 belonging to this compound: Cc1cc(N2C(=O)c3nc(C4=CCOCC4)n(C(C)C)c3C2c2ccc(Cl)cc2)nn2c(C(F)F)nnc12 (stereo not drawn)
30
